TEST SYSTEM: PXR (Homo sapiens, UniProt O75469)
Sequence (O75469 whole entry): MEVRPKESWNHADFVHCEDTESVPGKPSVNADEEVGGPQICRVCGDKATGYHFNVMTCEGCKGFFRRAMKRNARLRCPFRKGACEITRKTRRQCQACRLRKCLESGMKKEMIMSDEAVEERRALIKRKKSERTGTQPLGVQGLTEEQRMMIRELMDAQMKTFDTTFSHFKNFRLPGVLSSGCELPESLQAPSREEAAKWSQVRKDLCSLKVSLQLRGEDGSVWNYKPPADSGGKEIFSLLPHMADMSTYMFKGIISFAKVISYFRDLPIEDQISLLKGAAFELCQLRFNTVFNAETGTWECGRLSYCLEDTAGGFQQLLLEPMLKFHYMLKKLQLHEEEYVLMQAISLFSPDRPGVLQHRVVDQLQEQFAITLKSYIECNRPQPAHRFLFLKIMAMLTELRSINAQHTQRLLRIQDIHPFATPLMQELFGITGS
PROTOCOL DESCRIPTION: Activation of PXR (unknown origin) assessed as activation at 30 uM relative to control
Type: toxicity
COND: read-out: Activity
OUTCOME MEASURE: activity at 30 µM (%)
Provide only the numeric value, understood in %.

Note to self: activity at 30 µM recorded for CC(C)(O)c1ncc([S@](N)(=O)=NC(=O)Nc2c3c(cc4c2CCC4)CCC3)s1 was 19

---

PROTOCOL DESCRIPTION: Cmax in Beagle dog at 2 mg/kg, po by LC-MS analysis
Assay type: ADME, organism-based, Canis lupus familiaris
COND: in vivo
OUTCOME MEASURE: Cmax (ng/mL)
Provide only the numeric value, understood in ng/mL.

Note to self: Cmax recorded for CC(C)(O)c1ncc([S@](N)(=O)=NC(=O)Nc2c3c(cc4c2CCC4)CCC3)s1 was 6560

---

PROTOCOL DESCRIPTION: Half life in C57 BL6 mouse at 10 mg/kg, po and 2 mg/kg, iv by LC-MS analysis
Type: ADME, organism-based
COND: in vivo
OUTCOME MEASURE: half-life (min)
Provide only the numeric value, understood in min.

Note to self: half-life recorded for CC(C)(O)c1ncc([S@](N)(=O)=NC(=O)Nc2c3c(cc4c2CCC4)CCC3)s1 was 234

---

PROTOCOL DESCRIPTION: Half life in Beagle dog at 2 mg/kg, po and 1 mg/kg, iv by LC-MS analysis
Assay type: ADME, organism-based, Canis lupus familiaris
COND: in vivo
OUTCOME MEASURE: half-life (h)
Provide only the numeric value, understood in h.

Note to self: half-life recorded for CC(C)(O)c1ncc([S@](N)(=O)=NC(=O)Nc2c3c(cc4c2CCC4)CCC3)s1 was 9.4

---

TEST SYSTEM: Cytochrome P450 1A2 (Homo sapiens, UniProt P05177)
Sequence (P05177 whole entry): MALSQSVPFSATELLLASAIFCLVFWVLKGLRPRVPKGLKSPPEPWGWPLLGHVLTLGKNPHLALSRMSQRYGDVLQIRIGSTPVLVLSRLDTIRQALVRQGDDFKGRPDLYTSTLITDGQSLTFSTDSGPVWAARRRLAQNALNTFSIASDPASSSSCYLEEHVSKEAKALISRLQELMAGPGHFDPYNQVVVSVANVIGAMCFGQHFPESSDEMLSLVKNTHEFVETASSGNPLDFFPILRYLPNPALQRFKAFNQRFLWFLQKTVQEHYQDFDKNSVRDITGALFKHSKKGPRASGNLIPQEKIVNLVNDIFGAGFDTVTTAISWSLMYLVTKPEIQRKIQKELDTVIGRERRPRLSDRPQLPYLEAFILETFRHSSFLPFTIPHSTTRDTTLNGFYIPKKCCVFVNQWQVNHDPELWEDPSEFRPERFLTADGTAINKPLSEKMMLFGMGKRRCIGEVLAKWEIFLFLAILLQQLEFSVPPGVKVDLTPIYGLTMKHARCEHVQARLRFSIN
pIC50: −log10 of the molar value.
OUTCOME MEASURE: pIC50

For the compound CC(C)(O)c1ncc([S@](N)(=O)=NC(=O)Nc2c3c(cc4c2CCC4)CCC3)s1 , the measured pIC50 on Cytochrome P450 1A2 (Homo sapiens, UniProt P05177) was < 4.22

---

TEST SYSTEM: UniProt P08684
Sequence (P08684 whole entry): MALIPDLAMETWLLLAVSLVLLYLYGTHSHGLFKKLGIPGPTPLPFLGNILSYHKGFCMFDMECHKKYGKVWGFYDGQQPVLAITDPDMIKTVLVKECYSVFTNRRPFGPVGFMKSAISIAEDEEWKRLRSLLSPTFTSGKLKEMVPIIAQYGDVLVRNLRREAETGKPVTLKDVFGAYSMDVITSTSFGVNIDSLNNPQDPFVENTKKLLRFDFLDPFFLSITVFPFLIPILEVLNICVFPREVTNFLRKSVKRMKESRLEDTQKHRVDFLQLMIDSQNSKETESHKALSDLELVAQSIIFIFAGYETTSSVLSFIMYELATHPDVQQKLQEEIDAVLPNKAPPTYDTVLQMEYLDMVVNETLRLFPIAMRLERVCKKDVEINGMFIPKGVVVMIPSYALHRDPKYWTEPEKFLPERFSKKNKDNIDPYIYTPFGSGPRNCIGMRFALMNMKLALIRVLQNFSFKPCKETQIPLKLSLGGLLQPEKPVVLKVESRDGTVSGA
pIC50: −log10 of the molar value.
OUTCOME MEASURE: pIC50

For the molecule CC(C)(O)c1ncc([S@](N)(=O)=NC(=O)Nc2c3c(cc4c2CCC4)CCC3)s1 , the measured pIC50 on UniProt P08684 was < 4.22

---

TEST SYSTEM: Cytochrome P450 2C8 (Homo sapiens, UniProt P10632)
Sequence (P10632 whole entry): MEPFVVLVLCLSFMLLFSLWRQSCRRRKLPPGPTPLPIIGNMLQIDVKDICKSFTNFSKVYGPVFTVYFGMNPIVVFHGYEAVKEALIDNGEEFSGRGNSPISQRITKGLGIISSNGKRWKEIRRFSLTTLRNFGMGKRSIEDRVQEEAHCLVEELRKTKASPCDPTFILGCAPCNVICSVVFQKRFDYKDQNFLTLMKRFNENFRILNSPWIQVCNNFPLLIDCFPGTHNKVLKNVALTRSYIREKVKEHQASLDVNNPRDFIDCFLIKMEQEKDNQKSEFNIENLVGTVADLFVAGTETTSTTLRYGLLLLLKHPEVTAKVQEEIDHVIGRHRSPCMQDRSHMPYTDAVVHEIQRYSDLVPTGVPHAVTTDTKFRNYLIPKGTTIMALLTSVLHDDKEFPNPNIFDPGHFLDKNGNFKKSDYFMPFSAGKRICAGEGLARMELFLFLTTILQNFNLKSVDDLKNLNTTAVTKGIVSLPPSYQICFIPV
OUTCOME MEASURE: IC50

Note to self: IC50 recorded for CC(C)(O)c1ncc([S@](N)(=O)=NC(=O)Nc2c3c(cc4c2CCC4)CCC3)s1 was > 60 µM

---

PROTOCOL DESCRIPTION: Cytotoxicity against human HEK293 cells measured after 72 hrs
Format: toxicity, cell-based
OUTCOME MEASURE: EC50 at 72 h

Note to self: EC50 at 72 h recorded for CC(C)(O)c1ncc([S@](N)(=O)=NC(=O)Nc2c3c(cc4c2CCC4)CCC3)s1 was > 100 µM

---

PROTOCOL DESCRIPTION: Oral bioavailability in Cynomolgus monkey at 5 mg/kg administrated through oral gavage and 2 mg/kg, iv by LC-MS analysis
Format: ADME, organism-based, Macaca fascicularis
COND: in vivo
OUTCOME MEASURE: bioavailability
Units required after the number.

Note to self: bioavailability recorded for CC(C)(O)c1ncc([S@](N)(=O)=NC(=O)Nc2c3c(cc4c2CCC4)CCC3)s1 was 83%

---

PROTOCOL DESCRIPTION: Cmax in C57 BL6 mouse at 10 mg/kg, po by LC-MS analysis
Assay type: ADME, organism-based
COND: in vivo
OUTCOME MEASURE: Cmax (ng/mL)
Provide only the numeric value, understood in ng/mL.

Note to self: Cmax recorded for CC(C)(O)c1ncc([S@](N)(=O)=NC(=O)Nc2c3c(cc4c2CCC4)CCC3)s1 was 22200

---

TEST SYSTEM: Cytochrome P450 2D6 (Homo sapiens, UniProt P10635)
Sequence (P10635 whole entry): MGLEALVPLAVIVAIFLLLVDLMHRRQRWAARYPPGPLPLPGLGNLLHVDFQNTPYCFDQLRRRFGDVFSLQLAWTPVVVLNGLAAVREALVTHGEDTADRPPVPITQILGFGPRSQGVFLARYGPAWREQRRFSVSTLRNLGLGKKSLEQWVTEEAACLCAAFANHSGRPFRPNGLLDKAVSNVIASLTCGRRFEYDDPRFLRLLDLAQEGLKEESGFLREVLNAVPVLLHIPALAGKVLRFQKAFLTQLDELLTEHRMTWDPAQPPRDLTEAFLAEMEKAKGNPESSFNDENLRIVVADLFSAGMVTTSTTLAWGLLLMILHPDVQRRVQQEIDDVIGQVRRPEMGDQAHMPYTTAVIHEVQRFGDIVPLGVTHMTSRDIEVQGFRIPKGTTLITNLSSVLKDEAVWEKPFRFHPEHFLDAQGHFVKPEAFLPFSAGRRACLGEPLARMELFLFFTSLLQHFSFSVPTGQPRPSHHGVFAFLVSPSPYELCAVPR
OUTCOME MEASURE: IC50

For the molecule CC(C)(O)c1ncc([S@](N)(=O)=NC(=O)Nc2c3c(cc4c2CCC4)CCC3)s1 , the measured IC50 on Cytochrome P450 2D6 (Homo sapiens, UniProt P10635) was > 60 µM

---

TEST SYSTEM: Cytochrome P450 2C19 (Homo sapiens, UniProt P33261)
Sequence (P33261 whole entry): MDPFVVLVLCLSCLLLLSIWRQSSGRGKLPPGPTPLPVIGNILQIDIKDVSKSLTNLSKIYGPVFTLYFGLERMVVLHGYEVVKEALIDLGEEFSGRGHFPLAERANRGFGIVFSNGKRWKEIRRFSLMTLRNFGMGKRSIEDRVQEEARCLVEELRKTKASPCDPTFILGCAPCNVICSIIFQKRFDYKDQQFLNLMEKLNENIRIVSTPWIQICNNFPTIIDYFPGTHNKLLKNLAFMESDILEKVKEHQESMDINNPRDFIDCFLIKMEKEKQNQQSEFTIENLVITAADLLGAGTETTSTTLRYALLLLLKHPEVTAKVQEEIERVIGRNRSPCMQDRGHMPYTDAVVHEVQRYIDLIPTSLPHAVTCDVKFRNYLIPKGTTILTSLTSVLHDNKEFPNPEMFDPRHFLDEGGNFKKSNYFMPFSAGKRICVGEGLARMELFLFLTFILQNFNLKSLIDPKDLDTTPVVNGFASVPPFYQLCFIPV
OUTCOME MEASURE: IC50

For the compound CC(C)(O)c1ncc([S@](N)(=O)=NC(=O)Nc2c3c(cc4c2CCC4)CCC3)s1 , the measured IC50 on Cytochrome P450 2C19 (Homo sapiens, UniProt P33261) was > 60 µM

---

PROTOCOL DESCRIPTION: Volume of distribution at steady state in Sprague-Dawley rat at 5 mg/kg, po by LC-MS analysis
Type: ADME, organism-based
COND: in vivo
In plain terms, low Vdss, meaning strictly below 0.3 L/kg, gives fulfilled, and everything else gives not fulfilled.

Here's what some known entries look like.
LINE NOTATION: CC(C)(O)c1ncc([S@](N)(=O)=NC(=O)Nc2c3c(c(F)c4c2CCC4)CCC3)s1
QUALITATIVE LABEL: fulfilled
--
LINE NOTATION: CC(C)(O)c1coc(S(=O)(=O)NC(=O)Nc2c3c(cc4c2CCC4)CCC3)c1
QUALITATIVE LABEL: fulfilled
--
LINE NOTATION: CC(C)(O)c1cnc([S@](N)(=O)=NC(=O)Nc2c3c(cc4c2CCC4)CCC3)s1
QUALITATIVE LABEL: fulfilled

Given the entry CC(C)(O)c1csc([S@](N)(=O)=NC(=O)Nc2c3c(cc4c2CCC4)CCC3)n1 , would its reported Vdss be below 0.3 L/kg?
not fulfilled

Given the entry CC(C)(O)c1ncc([S@](N)(=O)=NC(=O)Nc2c3c(cc4c2CCC4)CCC3)s1 , would its reported Vdss be below 0.3 L/kg?
fulfilled

Given the entry CC(C)(O)c1nc([S@](N)(=O)=NC(=O)Nc2c3c(cc4c2CCC4)CCC3)cs1 , would its reported Vdss be below 0.3 L/kg?
not fulfilled

Given the entry CC(C)(O)c1csc([S@](N)(=O)=NC(=O)Nc2c3c(cc4c2CCC4)CCC3)c1 , would its reported Vdss be below 0.3 L/kg?
fulfilled

---

PROTOCOL DESCRIPTION: Oral bioavailability in Sprague-Dawley rat at 5 mg/kg administered through oral gavage by LC-MS analysis
Type: ADME, organism-based
COND: in vivo
OUTCOME MEASURE: bioavailability (%)
Provide only the numeric value, understood in %.

Note to self: bioavailability recorded for CC(C)(O)c1csc([S@](N)(=O)=NC(=O)Nc2c3c(cc4c2CCC4)CCC3)c1 was 50

---

PROTOCOL DESCRIPTION: Oral bioavailability in Beagle dog at 2 mg/kg administrated through oral gavage by LC-MS analysis
Assay type: ADME, organism-based, Canis lupus familiaris
COND: in vivo
OUTCOME MEASURE: bioavailability (%)
Provide only the numeric value, understood in %.

Note to self: bioavailability recorded for CC(C)(O)c1ncc([S@](N)(=O)=NC(=O)Nc2c3c(cc4c2CCC4)CCC3)s1 was 97

---

PROTOCOL DESCRIPTION: Metabolic stability in Cynomolgus monkey hepatocytes assessed as intrinsic clearance measured per 10^6 cells
Assay type: ADME, cell-based, Macaca fascicularis, Hepatocyte
COND: read-out: CLH
OUTCOME MEASURE: hepatocyte CLint

Note to self: hepatocyte CLint recorded for CC(C)(O)c1ncc([S@](N)(=O)=NC(=O)Nc2c3c(cc4c2CCC4)CCC3)s1 was 4.2 µL/min/1e6 cells
